Attribution: patent US20260258115A1

test_target: T1, RSV postfusion F (postF), subtype A (respiratory syncytial virus, subtype A, UniProt P03420 26-513)
T1 construct: also called F ΔFP; Postfusion subtype A
assay_protocol: BLI, IgG
Exercise: state measured pKd for each of the binders provided.
One number for each entry, as −log10 of the molar value.

binder | pKd
ADI-14404 (antibody, V domains shown, also called Ab 70) VH: EVQLVESGGGLVQPGGSLRLSCAASGFTFSNFEMNWVRQAPGKGLEWVSYISSSGRIIYYADSVKGRFTISRDNARNSLYVQMNSLRVEDTAVYYCARAKAAAGHDLWGQGTLVTVSS VL: EIVLTQSPSTLSASVGDRVTITCRASQSISPWLAWYQQKPGKAPKLLIYRASSLESGVPSRFSGSGSGTEFTLTISSLQPDDFATYYCQHYNSYLYTFGQGTKVEIK | 9.20

Consider now this further binder.
## Task Fill in pKd for record ADI-20989 (antibody, V domains shown) VH: EVQLLESGPGLVKPSGTLSLTCAVSGGSIINSNWWSWVRQSPGKGLEWIGDIYHSGSTTYNPSLKSRVTISVDRSKNQYSLRLTSVTAADTAVYYCAKIGPDNRSGPDYYYFMDVWGKGTTVTVSS VL: EIVLTQSPSSLPASVGDRVTISCRASQSISNYVYWYQQKPGKAPKLLIYAASSLQSGVPSRFSGSGSGTDFTLSISSLQFEDFATYFCQQSYSTPPTFGQGTKLEIK
## Result 9.37
